- targetEntity: Human glycogen phosphorylase a (Homo sapiens)
- Sequence (P06737 whole entry): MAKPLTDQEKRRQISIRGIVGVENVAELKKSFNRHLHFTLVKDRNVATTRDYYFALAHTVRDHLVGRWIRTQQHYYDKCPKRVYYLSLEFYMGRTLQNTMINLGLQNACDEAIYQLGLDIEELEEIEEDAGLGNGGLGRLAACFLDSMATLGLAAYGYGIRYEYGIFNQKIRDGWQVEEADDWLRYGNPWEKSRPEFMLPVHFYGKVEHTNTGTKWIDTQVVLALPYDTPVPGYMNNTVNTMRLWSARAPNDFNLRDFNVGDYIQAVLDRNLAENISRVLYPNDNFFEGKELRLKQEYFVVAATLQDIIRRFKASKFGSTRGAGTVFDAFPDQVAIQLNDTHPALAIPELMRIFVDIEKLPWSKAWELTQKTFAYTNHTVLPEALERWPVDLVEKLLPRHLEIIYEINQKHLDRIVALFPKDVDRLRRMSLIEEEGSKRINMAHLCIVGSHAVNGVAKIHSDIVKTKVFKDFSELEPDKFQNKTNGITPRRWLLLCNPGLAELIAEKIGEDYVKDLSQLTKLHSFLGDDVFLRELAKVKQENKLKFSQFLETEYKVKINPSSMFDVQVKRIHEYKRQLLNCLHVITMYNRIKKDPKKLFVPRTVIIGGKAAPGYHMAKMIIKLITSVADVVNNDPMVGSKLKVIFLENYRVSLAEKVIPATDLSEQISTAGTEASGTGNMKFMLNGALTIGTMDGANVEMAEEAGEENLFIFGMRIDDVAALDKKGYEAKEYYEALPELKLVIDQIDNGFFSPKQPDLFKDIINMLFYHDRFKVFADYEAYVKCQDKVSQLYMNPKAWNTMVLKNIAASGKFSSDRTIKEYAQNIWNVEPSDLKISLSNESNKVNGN
- protocolDetails: Glycogen phosphorylase a activity test (reverse direction, release of inorganic phosphate)
- Assay type: biochemical
- runParameters: 10 μM concentration of the test substance; in vitro, duplicate determinations
observable: inhibition at 10 µM (%)
Return type: number; implicit unit %.

A selection of reference data follows.
# compound, valueMeasured
data = [
    ("COC(=O)C=Cc1cc(C(=O)OC)ccc1NC(=O)NC(=O)c1cc(F)c(F)cc1Cl [Example 11]", 91),
    ("CC(=O)Nc1ccc(C=CC(=O)O)c(NC(=O)NC(=O)c2cc(F)c(F)cc2Cl)c1 [Example 3]", 95),
]

Quick one: inhibition at 10 µM of COC(=O)C=Cc1cc(C(=O)O)ccc1NC(=O)NC(=O)c1cc(F)c(F)cc1Cl [Example 7] ? 96

Also check O=C(O)C=Cc1ccccc1NC(=O)NC(=O)c1cc(F)c(F)cc1Cl [Example 2] 101
